# MEASURED TARGET: recombinant MPO (Homo sapiens)
# Construct: made in house
# Sequence (P05164 49-745): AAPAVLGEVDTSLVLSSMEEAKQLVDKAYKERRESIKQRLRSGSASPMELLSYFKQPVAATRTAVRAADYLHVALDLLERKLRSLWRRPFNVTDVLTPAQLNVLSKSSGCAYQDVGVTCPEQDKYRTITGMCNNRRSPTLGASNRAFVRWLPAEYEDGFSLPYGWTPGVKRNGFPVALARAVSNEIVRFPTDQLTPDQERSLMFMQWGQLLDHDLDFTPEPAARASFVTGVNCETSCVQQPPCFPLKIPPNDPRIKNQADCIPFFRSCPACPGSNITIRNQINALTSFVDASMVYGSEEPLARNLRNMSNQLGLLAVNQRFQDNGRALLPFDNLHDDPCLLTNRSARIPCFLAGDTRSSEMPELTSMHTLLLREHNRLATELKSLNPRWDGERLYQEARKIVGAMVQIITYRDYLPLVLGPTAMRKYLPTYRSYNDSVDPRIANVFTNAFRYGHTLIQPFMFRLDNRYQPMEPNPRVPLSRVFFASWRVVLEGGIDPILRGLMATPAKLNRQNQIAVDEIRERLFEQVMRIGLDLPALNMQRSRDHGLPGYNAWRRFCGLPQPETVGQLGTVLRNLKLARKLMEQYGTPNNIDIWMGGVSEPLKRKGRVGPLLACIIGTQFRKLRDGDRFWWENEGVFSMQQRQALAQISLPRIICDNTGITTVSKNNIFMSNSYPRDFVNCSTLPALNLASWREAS
# ASSAY: Myeloperoxidase inhibition (MPO) assay, taurine chloramine production by the MPO/H2O2/Cl- system
# Type: biochemical
# STATED CONDITIONS: Table 3, 3-amidoindole analogues; read-out: MPO IC50
Assignment: determine reported IC50 for the given molecules.
Answers are plain numbers, in µM.

Reference set, count: 3
>  <MOLECULE>
NC(=O)CCCCc1c[nH]c2c(F)cccc12 [Compound 57, 3-(5-(pentylamido)) -7-fluoro-1H-indole]

>  <MEASURED ATTRIBUTE>
IC50

>  <OBS VALUE>
0.039

$$$$
>  <MOLECULE>
NC(=O)CCCc1c[nH]c2c(F)cccc12 [Compound 54, 3-(4-(butylamido))-7-fluoro-1H-indole]

>  <MEASURED ATTRIBUTE>
IC50

>  <OBS VALUE>
0.026

$$$$
>  <MOLECULE>
CNC(=O)CCCc1c[nH]c2ccc(F)cc12 [Compound 59]

>  <MEASURED ATTRIBUTE>
IC50

>  <OBS VALUE>
0.04

$$$$

Working through the 2 molecules below one at a time, give IC50 for each.
1. NC(=O)CCCc1c[nH]c2ccc(F)cc12 [Compound 56, 3-(4-(Butylamido))-5-fluoro-1H-indole]
2. NC(=O)CCCCc1c[nH]c2ccc(F)cc12 [Compound 58, 3-(5-(pentylamido)) -5-fluoro-1H-indole]

1: 0.018; 2: 0.035
